- System: velvetleaf
- run-description: Test C pre-/postemergence test
- Format: in vivo, Abutilon theophrasti
- experimental-conditions: Postemergence, 62 g ai/ha
parameter-measured: Plant response rating (0 to 100), Velvetleaf
One number for each entry.

Below, each entry is followed by its recorded Plant response rating (0 to 100), Velvetleaf result.
>  <compound>
Cc1cc[n+]([O-])c(S(=O)(=O)Cc2c(C(F)(F)F)nn(C)c2OC(F)F)c1 [Compound 2]

>  <measured>
0

$$$$
>  <compound>
Cn1nc(C(F)(F)F)c(C[S+]([O-])c2ccc(F)c[n+]2[O-])c1OC(F)F (stereo not shown) [Compound 58]

>  <measured>
0

$$$$
>  <compound>
CC(c1c(C(F)(F)F)nn(C)c1Cl)S(=O)(=O)c1ccc(Cl)c[n+]1[O-] (racemic) [Compound 40]

>  <measured>
0

$$$$

// Plant response rating (0 to 100), Velvetleaf value for Cc1cc[n+]([O-])c([S+]([O-])Cc2c(C(F)(F)F)nn(C)c2OC(F)F)c1 (stereo not shown) [Compound 1] : 40

* * *

Please go through the items and note down their Plant response rating, Morningglory.
- System: morningglory
- run-description: Test A pre-/postemergence greenhouse test
- Type: in vivo, Ipomoea spp.
- experimental-conditions: Postemergence, 125 g ai/ha; 0 to 100 scale where 0 is no effect and 100 is complete control
Give bare numbers.

Below, each entry is followed by its recorded Plant response rating, Morningglory result.
>  <compound>
CC(C)c1cc[n+]([O-])c(S(=O)(=O)Cc2c(C(F)(F)F)nn(C)c2OC(F)F)c1 [Compound 110]

>  <parameter-measured>
Plant response rating, Morningglory

>  <measured>
40

$$$$
>  <compound>
Cn1nc(C(F)(F)F)c(CS(=O)(=O)c2cccc[n+]2[O-])c1OCC(F)(F)C(F)(F)F [Compound 83]

>  <parameter-measured>
Plant response rating, Morningglory

>  <measured>
10

$$$$

Below are 5 compounds. Give each one its Plant response rating, Morningglory.
1. Cc1ccc[n+]([O-])c1[S+]([O-])Cc1c(C(F)(F)F)nn(C)c1OC(F)F (stereo not shown) [Compound 112]
2. Cn1nc(C(F)(F)F)c(CS(=O)(=O)c2cccc[n+]2[O-])c1OCC(F)F [Compound 81]
3. Cn1nc(C(F)(F)C(F)(F)F)c(CS(=O)(=O)c2ccc(Cl)c[n+]2[O-])c1OCC(F)(F)F [Compound 100]
4. Cc1cc[n+]([O-])c(S(=O)(=O)Cc2c(C(F)(F)F)nn(C)c2OC(C)C(F)(F)F)c1 (stereo not shown) [Compound 96]
5. CCn1nc(C(F)(F)F)c(CS(=O)(=O)c2cccc[n+]2[O-])c1OCC(F)(F)F [Compound 63]

# output
70
30
0
10
30

* * *

Please go through the items and note down their Plant response rating, Ducksalad.
- Test system: duck salad
- run-description: Test C flooded paddy test
- Type: in vivo, Heteranthera limosa
- experimental-conditions: Flood, 250 g ai/ha; scale 0 to 100, 0 no effect, 100 complete control; 13 to 15 days
Numbers only.

Below, each entry is followed by its recorded Plant response rating, Ducksalad result.
>  <molecule>
Cc1ccc[n+]([O-])c1[S+]([O-])Cc1c(C(F)(F)F)nn(C)c1OC(F)F (stereo not shown)

>  <measured>
50

$$$$
>  <molecule>
Cn1nc(C(F)(F)F)c(CS(=O)(=O)c2cc(C(C)(C)C)cc[n+]2[O-])c1OCC(F)(F)F

>  <measured>
75

$$$$
>  <molecule>
Cn1nc(C(F)(F)F)c(C[S+]([O-])c2ccc(Cl)c[n+]2[O-])c1OCC(F)(F)C(F)(F)F (stereo not shown)

>  <measured>
100

$$$$
>  <molecule>
Cn1nc(C(F)(F)F)c(C[S+]([O-])c2ccc(F)c[n+]2[O-])c1OC(F)F (stereo not shown)

>  <measured>
80

$$$$
>  <molecule>
Cn1nc(C(F)(F)F)c(C[S+]([O-])c2cc(F)cc[n+]2[O-])c1Cl (racemic)

>  <measured>
90

$$$$

Below are 7 molecules. Give each one its Plant response rating, Ducksalad.
1. Cn1nc(C(F)(F)F)c(CS(=O)(=O)c2cc(F)cc[n+]2[O-])c1Cl
2. CCOc1ccc(S(=O)(=O)Cc2c(C(F)(F)F)nn(C)c2OC(F)F)[n+]([O-])c1
3. Cn1nc(C(F)(F)F)c(C[S+]([O-])c2cccc[n+]2[O-])c1OCC(F)F (stereo not shown)
4. Cn1nc(C(F)(F)F)c(C[S+]([O-])c2cc(Cl)cc[n+]2[O-])c1OCC(F)(F)F (stereo not shown)
5. Cn1nc(C(F)(F)F)c(CS(=O)(=O)c2ccc(Cl)c[n+]2[O-])c1OCC(F)(F)C(F)(F)F
6. Cc1cc(S(=O)(=O)Cc2c(C(F)(F)F)nn(C)c2OCC(F)(F)F)[n+]([O-])cc1Cl
7. Cn1nc(C(F)(F)F)c(C[S+]([O-])c2cc(Cl)cc[n+]2[O-])c1Cl (racemic)

# output
1. 80
2. 0
3. 85
4. 90
5. 40
6. 70
7. 95

* * *

- System: woolly cupgrass
- run-description: Test C pre-/postemergence test
- Type: in vivo, Eriochloa villosa
- experimental-conditions: preemergence, 125 g ai/ha; scale 0 (no effect) to 100 (complete control)
parameter-measured: Cupgrass, Woolly plant response rating

Below, each entry is followed by its recorded Cupgrass, Woolly plant response rating result.
>  <molecule>
Cn1nc(C(F)(F)F)c(CS(=O)(=O)c2cccc[n+]2[O-])c1Cl

>  <assay-system>
woolly cupgrass

>  <Cupgrass, Woolly plant response rating>
100

$$$$
>  <molecule>
Cn1nc(C(F)(F)F)c(CS(=O)(=O)c2cccc[n+]2[O-])c1OC(F)F

>  <assay-system>
woolly cupgrass

>  <Cupgrass, Woolly plant response rating>
98

$$$$
>  <molecule>
Cc1cc[n+]([O-])c([S+]([O-])Cc2c(C(F)(F)F)nn(C)c2OC(F)F)c1 (stereo not shown)

>  <assay-system>
woolly cupgrass

>  <Cupgrass, Woolly plant response rating>
90

$$$$

Now look at this one.
// Cupgrass, Woolly plant response rating value for Cn1nc(C(F)(F)F)c(C[S+]([O-])c2cccc[n+]2[O-])c1OC(F)F (stereo not shown) : 85

* * *

Please go through the items and note down their Plant response rating, Russian Thistle.
- Tested on: Russian thistle
- run-description: Test F preemergence test
- Type: in vivo, Salsola kali
- experimental-conditions: Preemergence; 31 g ai/ha; scale 0 to 100
- Description: Seeds of plant species selected from bermudagrass (Cynodon dactylon), Surinam grass (Brachiaria decumbens), large crabgrass (Digitaria sanguinalis), green foxtail (Setaria viridis), goosegrass (Eleusine indica), johnsongrass (Sorghum halepense), kochia (Kochia scoparia), pitted morningglory (Ipomoea lacunosa), purple nutsedge (Cyperus rotundus), common ragweed (Ambrosia elation), mustard (Brassica nigra), guineagrass (Panicum maximum), […] […]
One number for each entry.

Below are 5 compounds. Give each one its Plant response rating, Russian Thistle.
1. Cn1nc(C(F)(F)F)c(C[S+]([O-])c2ccc(Cl)c[n+]2[O-])c1OC(F)F (centres unmarked)
2. Cc1cc[n+]([O-])c(S(=O)(=O)C(C)c2c(C(F)(F)F)nn(C)c2OC(F)F)c1 (centres unmarked)
3. Cc1cc[n+]([O-])c(S(=O)(=O)Cc2c(C(F)(F)F)nn(C)c2OC(F)F)c1
4. CC(c1c(C(F)(F)F)nn(C)c1OC(F)F)S(=O)(=O)c1cccc[n+]1[O-] (centres unmarked)
5. Cn1nc(C(F)(F)F)c(C[S+]([O-])c2cccc[n+]2[O-])c1OC(F)F (centres unmarked)

# output
[0, 100, 0, 0, 35]

* * *

Please go through the items and note down their Cupgrass, Woolly plant response rating.
- Tested on: woolly cupgrass
- run-description: Test C pre-/postemergence test
- Assay type: in vivo, Eriochloa villosa
- experimental-conditions: 62 g ai/ha, Preemergence; scale 0 to 100
One number for each entry.

>  <compound>
CC(Oc1c(C[S+]([O-])c2cccc[n+]2[O-])c(C(F)(F)F)nn1C)C(F)(F)F (centres unmarked) [Compound 77]

>  <measured>
98

$$$$
>  <compound>
Cn1nc(C(F)(F)F)c(C(Cl)S(=O)(=O)c2cccc[n+]2[O-])c1OCC(F)(F)F (racemic) [Compound 36]

>  <measured>
55

$$$$
>  <compound>
Cn1nc(C(F)(F)F)c(C[S+]([O-])c2cccc[n+]2[O-])c1OCC(F)F (centres unmarked) [Compound 75]

>  <measured>
85

$$$$
>  <compound>
Cc1cc[n+]([O-])c(S(=O)(=O)Cc2c(C(F)(F)F)nn(C)c2OCC(F)(F)F)c1 [Compound 31]

>  <measured>
100

$$$$
>  <compound>
Cn1nc(C(F)(F)F)c(CS(=O)(=O)c2cccc[n+]2[O-])c1OCC(F)(F)F [Compound 29]

>  <measured>
100

$$$$

Below are 5 compounds. Give each one its Cupgrass, Woolly plant response rating.
1. Cn1nc(C(F)(F)F)c(C[S+]([O-])c2cc(C(F)(F)F)cc[n+]2[O-])c1Cl (racemic) [Compound 34]
2. Cn1nc(C(F)(F)F)c(C[S+]([O-])c2cc(Br)cc[n+]2[O-])c1Cl (racemic) [Compound 35]
3. Cc1cc[n+]([O-])c(S(=O)(=O)Cc2c(C(F)(F)F)nn(C)c2Cl)c1 [Compound 19]
4. Cc1cc[n+]([O-])c(S(=O)(=O)Cc2c(C(F)(F)C(F)(F)F)nn(C)c2OCC(F)(F)F)c1 [Compound 99]
5. Cn1nc(OC(F)F)c(CS(=O)(=O)c2cccc[n+]2[O-])c1C(F)(F)F [Compound 80]

# output
[35, 80, 100, 0, 100]

Below are 4 compounds. Give each one its Cupgrass, Woolly plant response rating.
1. CCn1nc(C(F)(F)F)c(CS(=O)(=O)c2cc(C)cc[n+]2[O-])c1OCC(F)(F)F [Compound 64]
2. CCn1nc(C(F)(F)F)c(C[S+]([O-])c2cc(C)cc[n+]2[O-])c1OCC(F)(F)F (racemic) [Compound 66]
3. Cn1nc(C(F)(F)F)c(C[S+]([O-])c2ccc(Cl)c[n+]2[O-])c1OCC(F)(F)F (racemic) [Compound 62]
4. CC(C)c1cc[n+]([O-])c([S+]([O-])Cc2c(C(F)(F)F)nn(C)c2OC(F)F)c1 (centres unmarked) [Compound 109]

# output
1: 100; 2: 85; 3: 70; 4: 95
